Origin of values: patent US20100105722A1

MEASUREMENT TARGET: hKCNQ2/3 (Homo sapiens, UniProt O43525+O43526)
Construct: expressed in transfected cells; host or cells: CHO-K1
EXPERIMENT SUMMARY: Fluorescence assay using a voltage sensitive dye (fluorimetry)
Type: cell-based
SETTINGS: CHO-K1, 10 μM; relative to retigabine = 100%; CHO-K1 cells expressing KCNQ2/3; Table 3; read-out: Fluorimetry % Efficacy @ 10 μM (reti-gabine = 100%)
Doc: threshold 30% (exclusive). Items with Emax at 10 µM beneath it return rule met; others return rule not met.

Use the examples below as a reference point.
INSERT INTO results (compound, measurement_target, category) VALUES
  ('Cc1csc2c1C(c1ccccc1)N(C(=O)CCC(=O)NCc1cccc(C(F)(F)F)c1)CC2 (stereo not drawn) [compound 20]', 'hKCNQ2/3 (Homo sapiens, UniProt O43525+O43526)', 'rule not met'),
  ('Cc1ccc(C2c3ccsc3CCN2C(=O)CCC(=O)NCCCc2ccccc2)cc1 (stereo not drawn) [compound 51]', 'hKCNQ2/3 (Homo sapiens, UniProt O43525+O43526)', 'rule not met');

Does the reported Emax at 10 µM of Cc1ccc(C2c3ccsc3CCN2C(=O)CCC(=O)NCCc2ccccc2)cc1 (stereo not drawn) [compound 49] stay below 30%? rule not met

For O=C(CC(C(=O)N1CCc2sccc2C1)c1ccccc1)NCc1cccc(C(F)(F)F)c1 (stereo not drawn) [compound 30] , is the recorded Emax at 10 µM below the cut-off of 30%? rule met

Lab log: compare recorded Emax at 10 µM with 30%; is it strictly lower for Cc1cccc(CNC(=O)CCC(=O)N2CCc3sccc3C2c2ccccc2)c1 (stereo not drawn) [compound 19] ? rule met

Find out if reported Emax at 10 µM for O=C(NCc1cccc(C(F)(F)F)c1)C(CC(=O)N1CCc2sccc2C1c1ccccc1)c1ccccc1 (stereo not drawn) [compound 27] is less than 30% rule not met

Quick check: does Cc1cccc(C2c3ccsc3CCN2C(=O)CCC(=O)NCc2cccc(C(F)(F)F)c2)c1 (stereo not drawn) [compound 4] have Emax at 10 µM under 30%? rule not met

Find out if reported Emax at 10 µM for COc1ccc(NC(=O)CCC(=O)N2CCc3sccc3C2c2ccc(C)cc2)cc1 (stereo not drawn) [compound 46] is less than 30% rule not met

Strictly below 30% in Emax at 10 µM? Cc1cccc(C2c3ccsc3CCN2C(=O)CCC(=O)NCc2ccccn2)c1 (stereo not drawn) [compound 54] rule met

Dear colleague, could you confirm whether Emax at 10 µM of COc1cccc(CNC(=O)CCC(=O)N2CCc3sccc3C2c2ccccc2)c1 (stereo not drawn) [compound 15] falls below 30%? Thanks. rule met

Please determine if O=C(CCC(=O)N1CCc2sccc2C1c1ccccc1)NCc1ccc(C(F)(F)F)cc1 (stereo not drawn) [compound 13] is below 30% in terms of Emax at 10 µM. rule not met

Is Emax at 10 µM strictly under 30% for the entry COc1ccc(CNC(=O)CCC(=O)N2CCc3sccc3C2c2ccccc2)cc1 (stereo not drawn) [compound 16] ? rule met

# TODO verify Emax at 10 µM < 30% strictly for this compound: O=C(CCC(=O)N1CCc2sccc2C1c1ccccc1)NCc1ccccc1C(F)(F)F (stereo not drawn) [compound 17] rule not met

In the record for Cc1ccc(C2c3ccsc3CCN2C(=O)CCC(=O)Nc2ccc3cnn(C)c3c2)cc1 (stereo not drawn) [compound 47] , is Emax at 10 µM less than 30%? rule not met

Determine whether this compound shows Emax at 10 µM lower than 30% (ties excluded): Cc1ccc(C2c3ccsc3CCN2C(=O)CCC(=O)NCc2cccc(C(F)(F)F)c2)cc1 (stereo not drawn) [compound 5] rule not met

Does the reported Emax at 10 µM of O=C(CCC(=O)N1CCc2sccc2C1c1ccccc1F)NCc1cccc(C(F)(F)F)c1 (stereo not drawn) [compound 6] stay below 30%? rule not met

Does O=C(CC(C(=O)N1CCc2sccc2C1c1ccccc1)c1ccccc1)NCc1cccc(C(F)(F)F)c1 (stereo not drawn) [compound 29] have Emax at 10 µM strictly under 30%? rule met

Dear reviewer, please state whether C[C@H](CC(=O)NCc1cccc(C(F)(F)F)c1)C(=O)N1CCc2sccc2C1c1ccccc1 (stereo partly drawn) [compound 34] has Emax at 10 µM strictly beneath 30%. rule not met
